Tested on: SW620 cells (KRAS G12V)
Test: Cell viability assay (Cell Counting Kit-8, 3-day)
Type: cell-based, human
Details: Homo sapiens, SW-620; SW620, 72 hrs incubation
Give pIC50 for every item shown.
Reminder that pIC50 means the negative base-10 logarithm of the concentration expressed in mol/L.

State the recorded pIC50 for this entry: CO[C@@H](C)c1ncc(N2CCOCC2)cc1-c1c2c3cc(cc4c3n1C(C)(C)CC4)-c1csc(n1)C[C@H](NC(=O)[C@H]1C[C@@H]1C)C(=O)N1CCC[C@H](N1)C(=O)OCC(C)(C)C2 [Example 125]
6.68

State the recorded pIC50 for this entry: CO[C@@H](C)c1ncc(N2CCN(C)CC2)cc1-c1c2c3cc(cc4c3n1CCO4)-c1csc(n1)C[C@H](NC(=O)[C@H]1C[C@@H]1c1cncnc1)C(=O)N1CCC[C@H](N1)C(=O)OCC(C)(C)C2 (atropisomer, axis not shown; (M)) [Example 93]
9.00

State the recorded pIC50 for this entry: CO[C@@H](C)c1ncc(N2CCN(C)CC2)cc1-c1c2c3cc(cc4c3n1CC(F)(F)C4)-c1csc(n1)C[C@H](NC(=O)[C@H]1C[C@@H]1c1cncnc1)C(=O)N1CCC[C@H](N1)C(=O)OCC(C)(C)C2 (atropisomer, axis not shown; (M)) [Example 95]
8.89

State the recorded pIC50 for this entry: CO[C@@H](C)c1ncc(N2CCOCC2)cc1-c1c2c3cc(cc4c3n1CCC4)-c1csc(n1)C[C@H](NC(=O)[C@H]1C[C@@H]1C(F)F)C(=O)N1CCC[C@H](N1)C(=O)OCC(C)(C)C2 (atropisomer, axis not shown; (M)) [Example 6]
8.80
